# credit: ChEMBL document CHEMBL4308836

Target: Isocitrate dehydrogenase [NADP] cytoplasmic (Homo sapiens, UniProt O75874, R132C)
Sequence (O75874 2-414 R132C limits assumed): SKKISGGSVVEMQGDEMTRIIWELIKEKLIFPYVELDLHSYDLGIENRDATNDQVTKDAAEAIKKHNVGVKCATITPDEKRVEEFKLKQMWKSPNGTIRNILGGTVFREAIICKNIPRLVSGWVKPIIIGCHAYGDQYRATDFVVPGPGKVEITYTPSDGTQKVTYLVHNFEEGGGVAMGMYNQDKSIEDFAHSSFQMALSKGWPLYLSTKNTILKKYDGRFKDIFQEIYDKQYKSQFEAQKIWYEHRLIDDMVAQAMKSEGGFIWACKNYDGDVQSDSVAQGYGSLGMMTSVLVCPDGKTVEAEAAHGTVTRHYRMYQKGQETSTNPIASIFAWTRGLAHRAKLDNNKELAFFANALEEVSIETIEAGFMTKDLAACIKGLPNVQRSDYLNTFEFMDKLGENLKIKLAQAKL
Experiment: Inhibition of IDH1 RI32C mutant in human U87 cells assessed as reduction in intracellular 2-HG levels after 24 hrs by resazurin fluorescence based assay
Assay type: cell-based, U-87MG ATCC
OUTCOME_MEASURE: IC50

Kindly indicate its recorded IC50. Item: N#Cc1ccnc(N2[C@H](C(=O)N(c3cccc(F)c3)[C@H](C(=O)NC3CC(F)(F)C3)c3ccccc3Cl)CCS2(=O)=O)c1 < 20 nM

* * *

Target: Isocitrate dehydrogenase [NADP], mitochondrial (Homo sapiens, UniProt P48735, R140Q)
Sequence (P48735 40-452 R140Q limits assumed): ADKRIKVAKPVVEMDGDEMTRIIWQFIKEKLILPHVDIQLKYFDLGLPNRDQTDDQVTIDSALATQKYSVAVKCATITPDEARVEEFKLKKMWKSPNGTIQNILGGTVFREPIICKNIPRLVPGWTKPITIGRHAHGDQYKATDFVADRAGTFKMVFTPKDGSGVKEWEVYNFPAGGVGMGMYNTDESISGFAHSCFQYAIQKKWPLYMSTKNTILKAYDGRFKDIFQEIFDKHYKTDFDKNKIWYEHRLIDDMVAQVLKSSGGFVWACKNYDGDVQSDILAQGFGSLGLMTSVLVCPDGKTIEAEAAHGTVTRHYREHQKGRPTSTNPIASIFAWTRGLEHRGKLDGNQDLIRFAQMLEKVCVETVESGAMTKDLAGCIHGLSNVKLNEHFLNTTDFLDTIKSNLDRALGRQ
Experiment: Inhibition of IDH2 R140Q mutant (unknown origin) assessed as reduction in NADPH consumption using alpha-KG as substrate incubated for 60 mins by diaphorase and resazurin dye based assay
OUTCOME_MEASURE: IC50 (nM)
Numeric answer only, unit nM assumed.

Kindly indicate its recorded IC50. Item: CC(C)(O)CNc1nc(Nc2ccnc(C(F)(F)F)c2)nc(-c2cccc(C(F)(F)F)n2)n1 [ENASIDENIB] 262
